Biological target: HDAC9 (Homo sapiens)
Sequence (Q9UKV0 whole entry): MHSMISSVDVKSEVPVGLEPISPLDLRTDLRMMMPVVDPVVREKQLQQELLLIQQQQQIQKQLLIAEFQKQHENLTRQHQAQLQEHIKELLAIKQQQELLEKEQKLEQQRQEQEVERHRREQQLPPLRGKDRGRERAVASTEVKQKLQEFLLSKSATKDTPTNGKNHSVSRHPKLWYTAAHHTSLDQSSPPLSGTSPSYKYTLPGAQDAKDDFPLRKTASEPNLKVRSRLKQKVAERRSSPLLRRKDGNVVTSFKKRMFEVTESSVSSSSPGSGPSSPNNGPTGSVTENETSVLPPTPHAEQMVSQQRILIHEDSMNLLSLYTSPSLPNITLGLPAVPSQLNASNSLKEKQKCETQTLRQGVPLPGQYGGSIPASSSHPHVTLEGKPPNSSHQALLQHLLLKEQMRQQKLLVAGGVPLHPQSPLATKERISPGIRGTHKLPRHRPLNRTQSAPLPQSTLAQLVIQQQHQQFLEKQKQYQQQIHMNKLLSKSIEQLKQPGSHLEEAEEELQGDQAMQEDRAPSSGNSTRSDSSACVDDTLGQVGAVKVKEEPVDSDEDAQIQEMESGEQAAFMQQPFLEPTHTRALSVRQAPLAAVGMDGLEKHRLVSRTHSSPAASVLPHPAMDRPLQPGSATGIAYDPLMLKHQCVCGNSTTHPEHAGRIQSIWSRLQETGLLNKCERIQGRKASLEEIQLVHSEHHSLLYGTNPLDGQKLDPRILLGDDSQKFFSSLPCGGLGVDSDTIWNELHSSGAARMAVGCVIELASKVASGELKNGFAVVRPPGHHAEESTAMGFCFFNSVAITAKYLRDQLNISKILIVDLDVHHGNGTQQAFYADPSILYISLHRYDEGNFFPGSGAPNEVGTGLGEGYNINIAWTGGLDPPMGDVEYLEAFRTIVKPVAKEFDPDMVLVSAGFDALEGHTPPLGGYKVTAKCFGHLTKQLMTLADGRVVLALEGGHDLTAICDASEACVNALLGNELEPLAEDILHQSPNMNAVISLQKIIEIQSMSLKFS
Assay: Kinetic HDAC enzyme inhibition assay, HDAC9
Conditions: recombinant HDAC

{"Smiles Record": "O=C(CCCCCCNC(=O)c1ccc(C(O)(c2ccccn2)c2ccccn2)cc1)NO", "IC50": "> 10 µM"}
{"Smiles Record": "O=C(NO)c1cnc(NC2(c3ccccc3)CC2)nc1", "IC50": "0.914 µM"}
{"Smiles Record": "Cc1ccccc1N(c1ccccc1)c1ncc(C(=O)NCCCCCCC(=O)NO)cn1", "IC50": "> 10 µM"}
{"Smiles Record": "COC(c1ccc(F)cc1)(c1ccc(F)cc1)c1ccc(C(=O)NCCCCCCC(=O)NO)cc1", "IC50": "> 10 µM"}
